# ASSAY: log P by HPLC on a reversed-phase column (C 18), EEC Directive 79/831 Annex V.A8
# Type: physicochemical
# TEST_CONDITIONS: pH 7.8
# Source text: Called log P (HCOOH) in the table. Called log P (neutral) in the table.
OBSERVABLE: LOGP_NEUTRAL (log P (neutral))
Number, no unit, nothing else.

Some compounds with known LOGP_NEUTRAL (log P (neutral)) results, for comparison:
CCS(=O)(=O)c1ccc(-n2cnc3cc(Cl)ccc32)nc1-c1nc2cc(C(F)(F)F)ncc2n1C : 3.12
CCS(=O)(=O)c1ccc(N2Cc3cc(OC)ccc3C2=O)nc1-c1nc2cc(C(F)(F)F)ncc2n1C : 3.32

Data point: "CCS(=O)(=O)c1ccc(-n2nnc3ccc(Cl)nc32)nc1-c1nc2cc(C(F)(F)F)ncc2n1C" ; LOGP_NEUTRAL (log P (neutral)) = 3.00

Measured LOGP_NEUTRAL (log P (neutral)) of "CCS(=O)(=O)c1ccc(-c2ccc3nn(C)cc3c2)nc1-c1nc2cc(C(F)(F)F)ncc2n1C" : 2.58

----------
# ASSAY: log P by HPLC on a reversed-phase column (C 18), EEC Directive 79/831 Annex V.A8
# Assay type: physicochemical
# TEST_CONDITIONS: neutral range, pH 7.8, 0.001 molar aqueous ammonium hydrogencarbonate/acetonitrile; 55° C.
OBSERVABLE: LOGP_NEUTRAL (log P (neutral))
Hey, just send me the number, nothing else.

CCS(=O)(=O)c1ccc(-n2ccc3ccccc32)nc1-c1nc2cc(C(F)(F)F)ncc2n1C : 3.65

Proceed to the following item.
Form field LOGP_NEUTRAL (log P (neutral)), entry "CCS(=O)(=O)c1ccc(-n2ncc3cnccc32)nc1-c1nc2cc(C(F)(F)F)ncc2n1C" : 2.47

----------
The compounds listed here are annotated with their LOGP_NEUTRAL (log P (neutral)).
# ASSAY: log P by HPLC on a reversed-phase column (C 18), EEC Directive 79/831 Annex V.A8
# Type: physicochemical
# TEST_CONDITIONS: neutral range, pH 7.8, 0.001 molar aqueous ammonium hydrogencarbonate/acetonitrile; 55° C.
Field format: numeric only.

Record excerpt, results attached:
CCS(=O)(=O)c1ccc(N2Cc3cccnc3C2)nc1-c1nc2cc(C(F)(F)F)ncc2n1C [Example I-22] : 2.46
CCS(=O)(=O)c1ccc(-n2ncc3c(Cl)cccc32)nc1-c1nc2cc(C(F)(F)F)ncc2n1C [Example I-10] : 4.24
CCS(=O)(=O)c1ccc(-n2ccc3cc(Cl)ccc32)nc1-c1nc2cc(C(F)(F)F)ncc2n1C [Example I-25] : 4.09

Query compound follows.
Value of LOGP_NEUTRAL (log P (neutral)) reported for the compound CCS(=O)(=O)c1ccc(-n2ncc3cccc(Cl)c32)nc1-c1nc2cc(C(F)(F)F)ncc2n1C [Example I-8] is 3.34

----------
Examples of compounds with documented LOGP_HCOOH (log P (HCOOH)) follow.
# ASSAY: log P by HPLC on a reversed-phase column (C 18), EEC Directive 79/831 Annex V.A8
# Format: physicochemical
# TEST_CONDITIONS: pH 2.7
Lab note: jot the number down without any unit.

CCS(=O)(=O)c1ccc(-n2nc3ccc(Cl)nn3c2=O)nc1-c1nc2cc(C(F)(F)F)ncc2n1C : 2.42
CCS(=O)(=O)c1ccc(-n2cc3c(Cl)cc(C(F)(F)F)cn3c2=O)nc1-c1nc2cc(C(F)(F)F)ncc2n1C : 4.27
CCS(=O)(=O)c1ccc(-n2nc3ccccn3c2=O)nc1-c1nc2cc(C(F)(F)F)ncc2n1C : 2.26
CCS(=O)(=O)c1ccc(-n2ncc3cccnc32)nc1-c1nc2cc(C(F)(F)F)ncc2n1C : 2.67
CCS(=O)(=O)c1ccc(-c2cc3cc(C#N)ccc3[nH]2)nc1-c1nc2cc(C(F)(F)F)ncc2n1C : 3.18

LOGP_HCOOH (log P (HCOOH)) recorded for this compound, "CCS(=O)(=O)c1ccc(-n2c(=O)[nH]c3ccccc32)nc1-c1nc2cc(C(F)(F)F)ncc2n1C" , is 2.59

LOGP_HCOOH (log P (HCOOH)) measured on "CCS(=O)(=O)c1ccc(N2Cc3ccc(Cl)cc3C2)nc1-c1nc2cc(C(F)(F)F)ncc2n1C" = 4.03

----------
# ASSAY: log P by HPLC on a reversed-phase column (C 18), EEC Directive 79/831 Annex V.A8
# Type: physicochemical
# TEST_CONDITIONS: pH 2.7
OBSERVABLE: LOGP_HCOOH (log P (HCOOH))
Respond numerically, and do not add a unit to the figure.

CCS(=O)(=O)c1ccc(-n2cccc3oc(=O)nc2-3)nc1-c1nc2cc(C(F)(F)F)ncc2n1C : 2.09
CCS(=O)(=O)c1ccc(N2C(=O)c3ccccc3C2=O)nc1-c1nc2cc(C(F)(F)F)ncc2n1C : 2.92
CCS(=O)(=O)c1ccc(N2Cc3ccccc3C2)nc1-c1nc2cc(C(F)(F)F)ncc2n1C : 3.59
CCS(=O)(=O)c1ccc(-c2cccc3nn(C)cc23)nc1-c1nc2cc(C(F)(F)F)ncc2n1C : 2.73

// field: LOGP_HCOOH (log P (HCOOH)); key: CC[S+]([O-])c1ccc(-n2cc3cccnc3n2)nc1-c1nc2cc(C(F)(F)F)ncc2n1C (stereo not shown) ; value = 2.46

Looking up "CCS(=O)(=O)c1ccc(-n2ccc3ccc(Cl)cc32)nc1-c1nc2cc(C(F)(F)F)ncc2n1C" , I found its LOGP_HCOOH (log P (HCOOH)) recorded as 4.04

Note to self: LOGP_HCOOH (log P (HCOOH)) recorded for "CCS(=O)(=O)c1ccc(-c2cc3ccccc3n2C)nc1-c1nc2cc(C(F)(F)F)ncc2n1C" was 3.90

----------
# ASSAY: log P by HPLC on a reversed-phase column (C 18), EEC Directive 79/831 Annex V.A8
# Format: physicochemical
# TEST_CONDITIONS: pH 7.8
condition met means recorded LOGP_NEUTRAL (log P (neutral)) is 3 or above; condition not met means it is below 3.

CCS(=O)(=O)c1ccc(-n2ncc3cccnc32)nc1-c1nc2cc(C(F)(F)F)ncc2n1C [Example I-6] : condition not met
CCS(=O)(=O)c1ccc(-n2cnc3ccc(OC)cc32)nc1-c1nc2cc(C(F)(F)F)ncc2n1C [Example I-30] : condition not met
CCS(=O)(=O)c1ccc(-n2cc3c(Cl)cc(C(F)(F)F)cn3c2=O)nc1-c1nc2cc(C(F)(F)F)ncc2n1C [Example I-12] : condition met

Lab note: next compound to report on.
Reported LOGP_NEUTRAL (log P (neutral)) reaches at least 3 for CCS(=O)(=O)c1ccc(-n2nc3c(Cl)cc(C(F)(F)F)cn3c2=O)nc1-c1nc2cc(C(F)(F)F)ncc2n1C [Example I-32] ?
condition met

----------
# ASSAY: log P by HPLC on a reversed-phase column (C 18), EEC Directive 79/831 Annex V.A8
# Type: physicochemical
# TEST_CONDITIONS: pH 2.7
OBSERVABLE: LOGP_HCOOH (log P (HCOOH))
Give the figure only, with no unit attached.

// known answers, use as guide
CCS(=O)(=O)c1ccc(-n2cnc3cc(Cl)ccc32)nc1-c1nc2cc(C(F)(F)F)ncc2n1C : 3.19
CCS(=O)(=O)c1ccc(-n2nc3cccc(Br)n3c2=O)nc1-c1nc2cc(C(F)(F)F)ncc2n1C : 2.70
CCS(=O)(=O)c1ccc(-n2nnc3ccc(Cl)nc32)nc1-c1nc2cc(C(F)(F)F)ncc2n1C : 2.96

Just so you know, measured LOGP_HCOOH (log P (HCOOH)) for "CCS(=O)(=O)c1ccc(-n2c(=O)[nH]c3cc(Cl)ccc32)nc1-c1nc2cc(C(F)(F)F)ncc2n1C" came out at 3.05

Sample "CCS(=O)(=O)c1ccc(N2Cc3cc(OC)ccc3C2=O)nc1-c1nc2cc(C(F)(F)F)ncc2n1C" ; LOGP_HCOOH (log P (HCOOH)) observed: 3.29

Short answer for "CCS(=O)(=O)c1ccc(-n2c(=O)n(C)c3ccccc32)nc1-c1nc2cc(C(F)(F)F)ncc2n1C" : LOGP_HCOOH (log P (HCOOH)) was 3.10

Lab note: measured LOGP_HCOOH (log P (HCOOH)) of "CCS(=O)(=O)c1ccc(-n2cnc3ccc(OC)cc32)nc1-c1nc2cc(C(F)(F)F)ncc2n1C" was 2.69

Data point: "CCS(=O)(=O)c1ccc(-n2cnc3ccc(Cl)nc32)nc1-c1nc2cc(C(F)(F)F)ncc2n1C" ; LOGP_HCOOH (log P (HCOOH)) = 3.25

Value of measured LOGP_HCOOH (log P (HCOOH)) for the entry "CCS(=O)(=O)c1ccc(N2Cc3cccnc3C2=O)nc1-c1nc2cc(C(F)(F)F)ncc2n1C" : 2.26

----------
# ASSAY: log P by HPLC on a reversed-phase column (C 18), EEC Directive 79/831 Annex V.A8
# Assay type: physicochemical
# TEST_CONDITIONS: acidic range, pH 2.7, 0.1% aqueous formic acid/acetonitrile; 55° C.
Catalogue of LOGP_HCOOH (log P (HCOOH)) readings, one per entry.

CCS(=O)(=O)c1ccc(-n2ccc3cc(Cl)ccc32)nc1-c1nc2cc(C(F)(F)F)ncc2n1C [Example I-25] : 4.10

Kindly note the recorded LOGP_HCOOH (log P (HCOOH)) for CCS(=O)(=O)c1ccc(-n2ncc3cnccc32)nc1-c1nc2cc(C(F)(F)F)ncc2n1C [Example I-11] , which is 1.75

response.value for CCS(=O)(=O)c1ccc(-n2nnc3cc(Cl)ccc32)nc1-c1nc2cc(C(F)(F)F)ncc2n1C [Example I-50] (field: LOGP_HCOOH (log P (HCOOH))) = 3.72

Reported LOGP_HCOOH (log P (HCOOH)) for CCS(=O)(=O)c1ccc(-n2cc3cccc(Cl)c3n2)nc1-c1nc2cc(C(F)(F)F)ncc2n1C [Example I-5] was 3.94

Data origin: patent US10375962B2
